Biological target: human insulin receptor (Homo sapiens)
Sequence (P06213 28-758 limits assumed): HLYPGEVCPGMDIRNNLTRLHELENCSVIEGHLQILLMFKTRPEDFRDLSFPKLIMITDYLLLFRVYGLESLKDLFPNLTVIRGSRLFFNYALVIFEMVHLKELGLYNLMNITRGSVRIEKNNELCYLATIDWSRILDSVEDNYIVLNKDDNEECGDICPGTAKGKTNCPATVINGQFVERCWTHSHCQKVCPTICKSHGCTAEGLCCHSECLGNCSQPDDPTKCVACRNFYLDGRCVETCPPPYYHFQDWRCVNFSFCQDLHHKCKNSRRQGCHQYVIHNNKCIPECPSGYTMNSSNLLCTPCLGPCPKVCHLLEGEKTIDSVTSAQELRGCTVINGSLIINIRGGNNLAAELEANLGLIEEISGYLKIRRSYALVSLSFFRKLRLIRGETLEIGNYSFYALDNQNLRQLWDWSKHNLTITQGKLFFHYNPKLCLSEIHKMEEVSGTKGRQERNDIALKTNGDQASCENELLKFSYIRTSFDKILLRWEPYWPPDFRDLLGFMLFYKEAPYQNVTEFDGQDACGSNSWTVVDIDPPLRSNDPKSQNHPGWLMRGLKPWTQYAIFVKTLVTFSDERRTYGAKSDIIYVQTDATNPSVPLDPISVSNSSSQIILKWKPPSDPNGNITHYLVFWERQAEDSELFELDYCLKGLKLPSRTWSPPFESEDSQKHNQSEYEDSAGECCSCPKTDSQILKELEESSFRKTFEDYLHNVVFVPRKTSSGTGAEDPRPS
Sequence (P06213 763-1382 partner limits assumed): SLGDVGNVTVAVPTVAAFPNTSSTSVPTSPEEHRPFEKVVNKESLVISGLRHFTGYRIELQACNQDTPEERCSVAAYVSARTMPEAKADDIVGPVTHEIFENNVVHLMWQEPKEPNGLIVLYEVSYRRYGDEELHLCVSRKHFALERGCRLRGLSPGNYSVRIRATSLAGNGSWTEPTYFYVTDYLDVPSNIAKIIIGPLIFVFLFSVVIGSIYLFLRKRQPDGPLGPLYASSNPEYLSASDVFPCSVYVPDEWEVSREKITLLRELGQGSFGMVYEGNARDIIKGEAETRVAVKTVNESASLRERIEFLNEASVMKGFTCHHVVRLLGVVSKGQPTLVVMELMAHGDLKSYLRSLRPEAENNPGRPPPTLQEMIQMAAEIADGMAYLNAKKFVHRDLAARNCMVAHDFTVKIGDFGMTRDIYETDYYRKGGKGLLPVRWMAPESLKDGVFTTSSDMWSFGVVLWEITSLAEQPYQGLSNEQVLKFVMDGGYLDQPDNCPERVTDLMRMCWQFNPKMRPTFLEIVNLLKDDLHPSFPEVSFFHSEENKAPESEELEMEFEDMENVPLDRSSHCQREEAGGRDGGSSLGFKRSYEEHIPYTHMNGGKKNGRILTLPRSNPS
Assay: Cell-based pAKT (Ser473) assay in NIH 3T3 cells overexpressing human insulin receptor
Design: expressed in transfected cells; host or cells: NIH 3T3 cell line derived from IGF-1R knockout mice (gift from A. Morrione, Thomas Jefferson University)
pEC50: −log10 of the molar value. Positions of bridges follow the written chain, without caps; N, C: chain ends. Chains are numbered I, II in the order given. No end group written: not given here.

substance	pEC50
I: GIVEQCCHRICSLYQLENYCGGSLPETGGGSLEEEWAQIQSEVWGRGSPSY / II: FVNQHLCGSELVEALYLVCGERGFFYTPK (disulfide I:6-I:11, I:7-II:7, I:20-II:19) [Ins-AC-10-11]	10.94
I: FVNQHLCGSELVEALYLVCGERGFFYTPK / II: GIVEQCCHRICSLYQLENYCGGSLPETGG (disulfide I:7-II:7, I:19-II:20, II:6-II:11) [Ins-AC-10-9]	9.25

# credit: patent US20260209304A1
